- tested-system: HiBit-KRAS^G12C (Homo sapiens, UniProt P01116, G12C)
- Sequence (P01116 1-186 isoform P01116-2 G12C limits assumed): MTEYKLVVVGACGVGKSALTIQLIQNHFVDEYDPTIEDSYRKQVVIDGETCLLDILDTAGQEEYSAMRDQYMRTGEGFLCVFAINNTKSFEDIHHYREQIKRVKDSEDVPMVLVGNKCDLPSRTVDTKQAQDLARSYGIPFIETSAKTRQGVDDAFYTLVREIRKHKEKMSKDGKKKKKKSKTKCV
- assay-method-text: HiBit degradation assay in SW1573 HiBit-KRas^G12C cells
- Type: cell-based
- Parameters: expressed in transfected cells; host or cells: SW1573 (clone E6), modified pcDNA3.1 vector, TK promoter
- condition: SW1573, SW1573 HiBit-KRas^G12C, 0.5% DMSO, 24 hours; read-out: KRas^G12C-HiBiT (SW1573; 0.5% DMSO) Dmax**
Here, each record is paired with measured Dmax data.
quantity-measured: Dmax

>  <compound>
C=CC(=O)N1CCN(c2nc(OCCN3CCC(COCC(=O)N[C@H](C(=O)N4C[C@H](O)C[C@H]4C(=O)N[C@@H](C)c4ccc(-c5ccnn5C)cc4)C(C)(C)C)CC3)nc3c(F)c(-c4cc(O)cc5ccccc45)c(Cl)cc23)C[C@@H]1CC#N (atropisomer, axis not shown) [Compound 136]

>  <quantity-measured>
Dmax

>  <measured>
> 70%

$$$$
>  <compound>
Cc1ncsc1-c1ccc([C@H](C)NC(=O)[C@@H]2C[C@@H](O)CN2C(=O)[C@@H](NC(=O)COCC2CCN(CCOc3nc(N4CCN(C(=O)/C=C/CN5CCOCC5)[C@@H](CC#N)C4)c4cc(Cl)c(-c5cc(O)cc6ccccc56)c(F)c4n3)CC2)C(C)(C)C)cc1 [Compound 164]

>  <quantity-measured>
Dmax

>  <measured>
35 to 70%

$$$$
>  <compound>
C=CC(=O)N1CCN(c2nc(O[C@H](C)CN3CCC(OCCOCC(=O)N[C@H](C(=O)N4C[C@H](O)C[C@H]4C(=O)N[C@@H](C)c4ccc(-c5scnc5C)cc4)C(C)(C)C)CC3)nc3c(F)c(-c4cc(O)cc5ccccc45)c(Cl)cc23)C[C@@H]1CC#N [Compound 33]

>  <quantity-measured>
Dmax

>  <measured>
35 to 70%

$$$$
>  <compound>
C=CC(=O)N1CCN(c2nc(OC[C@@H]3CCN(CCCOCC(=O)N[C@H](C(=O)N4C[C@H](O)C[C@H]4C(=O)N[C@@H](C)c4ccc(-c5scnc5C)cc4)C(C)(C)C)C3)nc3c(F)c(-c4cc(O)cc5ccccc45)c(Cl)cc23)C[C@@H]1CC#N [Compound 95]

>  <quantity-measured>
Dmax

>  <measured>
> 70%

$$$$
>  <compound>
C=CC(=O)N1CCN(c2nc(O[C@H](C)CN3CCC(OCCOCC(=O)N[C@H](C(=O)N4C[C@H](O)C[C@H]4C(=O)N[C@@H](C)c4ccc(-c5scnc5C)cc4)C(C)(C)C)CC3)nc3c2CCN(c2cc(O)cc4ccccc24)C3)C[C@@H]1CC#N [Compound 31]

>  <quantity-measured>
Dmax

>  <measured>
35 to 70%

$$$$
>  <compound>
C=CC(=O)N1CCN(c2nc(OCCN3CCC(COCC(=O)N[C@H](C(=O)N4C[C@H](O)C[C@H]4C(=O)N[C@@H](C)c4ccc(-c5scnc5C)cc4)C(C)(C)C)CC3)nc3c(F)c(-c4cc(O)cc5ccccc45)c(Cl)cc23)CC1 [Compound 63]

>  <quantity-measured>
Dmax

>  <measured>
> 70%

$$$$
>  <compound>
C=CC(=O)N1CCN(c2nc(O[C@H](C)CN3CCC(COCC(=O)N[C@H](C(=O)N4C[C@H](O)C[C@H]4C(=O)N[C@@H](C)c4ccc(-c5scnc5C)cc4)C(C)(C)C)CC3)nc3c(F)c(-c4cc(O)cc5ccccc45)c(Cl)cc23)C[C@@H]1CC#N [Compound 152]

>  <quantity-measured>
Dmax

>  <measured>
> 70%

$$$$
>  <compound>
C=CC(=O)N1CCN(c2nc(OCCN3CCC(COc4cc([C@H](C(=O)N5C[C@H](O)C[C@H]5C(=O)N[C@@H](C)c5ccc(-c6ccnn6C)cc5)C(C)C)on4)CC3)nc3c(F)c(-c4cc(O)cc5ccccc45)c(Cl)cc23)C[C@@H]1CC#N (atropisomer, axis not shown) [Compound 138]

>  <quantity-measured>
Dmax

>  <measured>
> 70%

$$$$
>  <compound>
C=C(F)C(=O)N1CCN(c2nc(OCCN3CCC(OCCOc4cc([C@H](C(=O)N5C[C@H](O)C[C@H]5C(=O)N[C@@H](C)c5ccc(-c6scnc6C)cc5)C(C)C)on4)CC3)nc3c(F)c(-c4cc(O)cc5ccccc45)c(Cl)cc23)C[C@@H]1CC#N [Compound 16]

>  <quantity-measured>
Dmax

>  <measured>
> 70%

$$$$
>  <compound>
C=CC(=O)N1CCN(c2nc(OCCN3CCC(CN(C)c4cc([C@@H](C(=O)N5C[C@H](O)C[C@H]5C(=O)N[C@@H](C)c5ccc(-c6scnc6C)cc5)C(C)C)on4)CC3)nc3c(F)c(-c4cc(O)cc5ccccc45)c(Cl)cc23)C[C@@H]1CC#N [Compound 144]

>  <quantity-measured>
Dmax

>  <measured>
< 35%

$$$$
>  <compound>
C=CC(=O)N1CCN(c2nc(O[C@H](C)CN3CCC(OCCOCC(=O)N[C@H](C(=O)N4C[C@H](O)C[C@H]4C(=O)N[C@@H](C)c4ccc(-c5scnc5C)cc4)C(C)(C)C)CC3)nc3c(F)c(-c4cc(O)cc5ccccc45)c(Cl)cc23)CC1 (atropisomer, axis not shown) [Compound 86]

>  <quantity-measured>
Dmax

>  <measured>
35 to 70%

$$$$

###

Here, each record is paired with measured DC50 data.
- tested-system: HiBit-KRAS^G12C (Homo sapiens, UniProt P01116, G12C)
- assay-method-text: HiBit degradation assay in MiaPaCa-2 HiBit-KRas^G12C cells
- Type: cell-based
- condition: read-out: KRas^G12C-HiBiT (MiaPaCa; 0.1% DMSO) IC50; MiaPaCa-2 HiBit-KRas^G12C cells; 0.1% DMSO; 24 hours

>  <compound-structure>
C=CC(=O)N1CCN(c2nc(O[C@H](C)CN3CCN(CC4CN(CC(=O)N[C@H](C(=O)N5C[C@H](O)C[C@H]5C(=O)N[C@@H](C)c5ccc(-c6scnc6C)cc5)C(C)(C)C)C4)CC3)nc3c(F)c(-c4cc(O)cc5ccccc45)c(Cl)cc23)CC1

>  <DC50>
> 1000 nM

$$$$
>  <compound-structure>
C=CC(=O)N1CCN(c2nc(O[C@H](C)CN3CC(OCC(=O)N[C@H](C(=O)N4C[C@H](O)C[C@H]4C(=O)N[C@@H](C)c4ccc(-c5scnc5C)cc4)C(C)(C)C)C3)nc3c(F)c(-c4cc(O)cc5ccccc45)c(Cl)cc23)CC1

>  <DC50>
100 to 1000 nM

$$$$
>  <compound-structure>
C=CC(=O)N1CCN(c2nc(O[C@H](C)CN3CCC(OCCN4CCN(CC(=O)N[C@H](C(=O)N5C[C@H](O)C[C@H]5C(=O)N[C@@H](C)c5ccc(-c6scnc6C)cc5)C(C)(C)C)CC4)CC3)nc3c(F)c(-c4cc(O)cc5ccccc45)c(Cl)cc23)CC1

>  <DC50>
> 1000 nM

$$$$
>  <compound-structure>
C=CC(=O)N1CCN(c2nc(O[C@H](C)CN3CCC(OCCOCC(=O)N[C@H](C(=O)N4C[C@H](O)C[C@H]4C(=O)N[C@@H](C)c4ccc(-c5scnc5C)cc4)C(C)(C)C)CC3)nc3c(F)c(-c4c(O)cccc4F)c(Cl)cc23)CC1

>  <DC50>
> 1000 nM

$$$$
>  <compound-structure>
C=CC(=O)N1CCN(c2nc(O[C@H](C)CN3CCN(CCOC4CCN(CC(=O)N[C@H](C(=O)N5C[C@H](O)C[C@H]5C(=O)N[C@@H](C)c5ccc(-c6scnc6C)cc5)C(C)(C)C)CC4)CC3)nc3c(F)c(-c4cc(O)cc5ccccc45)c(Cl)cc23)CC1

>  <DC50>
> 1000 nM

$$$$
>  <compound-structure>
C=CC(=O)N1CCN(c2nc(O[C@H](C)CN3CCC(OCCOCC(=O)N[C@H](C(=O)N4C[C@H](O)C[C@H]4C(=O)N[C@@H](C)c4ccc(-c5scnc5C)cc4)C(C)(C)C)CC3)nc3c(F)c(-c4cc(O)cc5ccccc45)c(Cl)cc23)C[C@H]1C

>  <DC50>
> 1000 nM

$$$$
>  <compound-structure>
C=CC(=O)N1CCN(c2nc(OCCN3CCC(OCCOc4cc([C@@H](C(=O)N5C[C@@H](O)C[C@H]5C(=O)N[C@@H](C)c5ccc(-c6scnc6C)cc5)C(C)C)on4)CC3)nc3c(F)c(-c4cc(O)cc5ccccc45)c(Cl)cc23)C[C@@H]1CC#N

>  <DC50>
100 to 1000 nM

$$$$
>  <compound-structure>
C=CC(=O)N1CCN(c2nc(O[C@H](C)CN3CCC(CCCOC4CN(CC(=O)N[C@H](C(=O)N5C[C@H](O)C[C@H]5C(=O)N[C@@H](C)c5ccc(-c6scnc6C)cc5)C(C)(C)C)C4)CC3)nc3c(F)c(-c4cc(O)cc5ccccc45)c(Cl)cc23)CC1

>  <DC50>
> 1000 nM

$$$$
>  <compound-structure>
C=CC(=O)N1CCN(c2nc(OCCN3CCC(OCCOCCOCC(=O)N[C@H](C(=O)N4C[C@H](O)C[C@H]4C(=O)N[C@@H](C)c4ccc(-c5scnc5C)cc4)C(C)(C)C)CC3)nc3c(F)c(-c4cc(O)cc5ccccc45)c(Cl)cc23)CC1

>  <DC50>
> 1000 nM

$$$$
>  <compound-structure>
C=CC(=O)N1CCN(c2nc(O[C@H](C)CN3CCN(CCCN4CCN(CC(=O)N[C@H](C(=O)N5C[C@H](O)C[C@H]5C(=O)N[C@@H](C)c5ccc(-c6scnc6C)cc5)C(C)(C)C)CC4)CC3)nc3c(F)c(-c4cc(O)cc5ccccc45)c(Cl)cc23)CC1

>  <DC50>
> 1000 nM

$$$$
>  <compound-structure>
C=CC(=O)N1CCN(c2nc(O[C@H](C)CN3CCC(OCCOC4CN(CC(=O)N[C@H](C(=O)N5C[C@H](O)C[C@H]5C(=O)N[C@@H](C)c5ccc(-c6scnc6C)cc5)C(C)(C)C)C4)CC3)nc3c(F)c(-c4cc(O)cc5ccccc45)c(Cl)cc23)CC1

>  <DC50>
> 1000 nM

$$$$
>  <compound-structure>
C=CC(=O)N1CCN(c2nc(O[C@H](C)CN3CCN(C4CN(CC(=O)N[C@H](C(=O)N5C[C@H](O)C[C@H]5C(=O)N[C@@H](C)c5ccc(-c6scnc6C)cc5)C(C)(C)C)C4)CC3)nc3c(F)c(-c4cc(O)cc5ccccc45)c(Cl)cc23)CC1

>  <DC50>
100 to 1000 nM

$$$$
>  <compound-structure>
C=CC(=O)N1CCN(c2nc(O[C@H](C)CN3CCC(C(=O)N[C@H](C(=O)N4C[C@H](O)C[C@H]4C(=O)N[C@@H](C)c4ccc(-c5scnc5C)cc4)C(C)(C)C)CC3)nc3c(F)c(-c4cc(O)cc5ccccc45)c(Cl)cc23)CC1

>  <DC50>
> 1000 nM

$$$$
>  <compound-structure>
C=CC(=O)N1CCN(c2nc(O[C@H](C)CN3CCN(CCCOC4CN(CC(=O)N[C@H](C(=O)N5C[C@H](O)C[C@H]5C(=O)N[C@@H](C)c5ccc(-c6scnc6C)cc5)C(C)(C)C)C4)CC3)nc3c(F)c(-c4cc(O)cc5ccccc45)c(Cl)cc23)CC1

>  <DC50>
> 1000 nM

$$$$
>  <compound-structure>
C=CC(=O)N1CCN(c2nc(OC[C@@H]3C[C@@H](OCCOc4cc(-c5scnc5C)ccc4CNC(=O)[C@@H]4C[C@@H](O)CN4C(=O)[C@H](c4cc(C)no4)C(C)C)CN3C)nc3c2CCN(c2cccc4ccccc24)C3)C[C@@H]1CC#N

>  <DC50>
> 1000 nM

$$$$
>  <compound-structure>
C=CC(=O)N1CCN(c2nc(O[C@H](C)CN3CCC(OCCOCCOCCOc4cc(-c5scnc5C)ccc4CNC(=O)[C@@H]4C[C@@H](O)CN4C(=O)[C@H](c4cc(C)no4)C(C)C)CC3)nc3c(F)c(-c4cc(O)cc5ccccc45)c(Cl)cc23)CC1

>  <DC50>
> 1000 nM

$$$$
>  <compound-structure>
C=CC(=O)N1CCN(c2nc(OCCN3CCN(CCOCC(=O)N[C@H](C(=O)N4C[C@H](O)C[C@H]4C(=O)N[C@@H](C)c4ccc(-c5scnc5C)cc4)C(C)(C)C)CC3)nc3c(F)c(-c4cc(O)cc5ccccc45)c(Cl)cc23)CC1

>  <DC50>
100 to 1000 nM

$$$$
